- experiment-description: Toxicokinetics in plasma, mouse 90-day study
- Type: in vivo
- condition-details: female, mouse, plasma, po, 100 ppm in diet
reported-property: AUC(0-t) (ng·h/mL)

# smi, result-value
rows = [
    ("Cn1c(C(F)(F)F)cc(=O)n(-c2cc(Oc3cccnc3OCC(=O)O)c(Cl)cc2F)c1=O", 14800),
]

----------
- experiment-description: Toxicokinetics in plasma, mouse 90-day study
- Assay type: in vivo
- condition-details: male, mouse, plasma, po, 100 ppm in diet

# molecule, Cmax (ng/mL)
records = [
    ("Cn1c(C(F)(F)F)cc(=O)n(-c2cc(Oc3cccnc3OCC(=O)O)c(Cl)cc2F)c1=O [S-3100-CA]", 550),
]
